Target: Levetiracetam Binding Site (LBS) (Rattus norvegicus, UniProt Q02563)
Construct: from tissue; host or cells: rat cerebral cortex crude membranes (male Sprague-Dawley)
Sequence (Q02563 whole entry): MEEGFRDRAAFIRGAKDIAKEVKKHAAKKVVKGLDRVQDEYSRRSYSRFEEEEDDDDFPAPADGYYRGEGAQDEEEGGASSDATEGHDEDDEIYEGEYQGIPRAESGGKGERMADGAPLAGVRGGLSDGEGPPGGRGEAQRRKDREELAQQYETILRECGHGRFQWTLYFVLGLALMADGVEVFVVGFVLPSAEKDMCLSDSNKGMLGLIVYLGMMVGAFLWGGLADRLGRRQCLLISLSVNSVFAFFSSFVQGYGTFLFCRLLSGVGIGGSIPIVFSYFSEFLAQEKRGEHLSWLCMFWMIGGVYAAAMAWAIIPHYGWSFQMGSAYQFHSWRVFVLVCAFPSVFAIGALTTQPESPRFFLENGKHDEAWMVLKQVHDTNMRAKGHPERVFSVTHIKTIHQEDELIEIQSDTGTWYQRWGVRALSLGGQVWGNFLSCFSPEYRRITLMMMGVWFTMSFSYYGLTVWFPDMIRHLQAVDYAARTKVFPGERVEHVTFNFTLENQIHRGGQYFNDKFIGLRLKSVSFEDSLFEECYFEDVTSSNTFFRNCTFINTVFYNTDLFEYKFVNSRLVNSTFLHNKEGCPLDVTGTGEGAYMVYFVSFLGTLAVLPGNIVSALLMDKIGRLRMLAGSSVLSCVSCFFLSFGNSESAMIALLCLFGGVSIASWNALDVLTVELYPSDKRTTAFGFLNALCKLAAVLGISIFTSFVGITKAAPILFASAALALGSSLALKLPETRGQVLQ
Test: Competitive binding to levetiracetam binding site (LBS), radioligand [3H]-2-[4-(3-azidophenyl)-2-oxo-1-pyrrolidinyl]butanamide, cerebral cortex membranes
Settings: 7-ring compounds, rat cerebral cortex membranes
Listed here are molecules together with their documented Ki.

molecule	recordedMetric	observedMeasurement
CCC(C(N)=O)N1CCC(CI)CCC1=O (single isomer, unassigned) [Compound 17]	Ki	> 3160 nM
CCC(C(N)=O)N1CCC(CI)CCC1=O (single isomer, unassigned) [Compound 20]	Ki	316 to 3160 nM
CCC(C(N)=O)N1CCC(CI)CCC1=O (single isomer, unassigned) [Compound 18]	Ki	31.6 to 316 nM

Next item in the queue.
The molecule listed as CCC(C(N)=O)N1CCC(CI)CCC1=O (single isomer, unassigned) [Compound 19] shows Ki equal to > 3160 nM
